- Test system: proteasome trypsin-like activity
- assay.comment: Proteasome-Glo assay in intact MM cells, trypsin-like activity
- Assay type: cell-based, human
- setup.conditions: read-out: Trypsin-like IC50; MM1S cell line, 24 hours incubation
quantity.kind: IC50

{"columns": ["molecule", "meas.value"],
 "data": [
  ["CC(C)C[C@H](NC(=O)[C@H](Cc1ccccc1)NC(=O)c1cnccn1)B(O)O [Bortezomib]", "> 18 nM"]
]}

----------
- System: proteasome trypsin-like activity
- assay.comment: Proteasome-Glo assay in intact MM cells, trypsin-like activity
- Assay type: cell-based, human
- setup.conditions: read-out: Trypsin-like IC50; U266 cell line, 24 hours incubation
quantity.kind: IC50

{"columns": ["compound", "system.tested", "meas.value"],
 "data": [
  ["CC(C)C[C@H](NC(=O)[C@H](Cc1ccccc1)NC(=O)c1cnccn1)B(O)O [Bortezomib]", "proteasome trypsin-like activity", "> 18 nM"]
]}
